Tested on: OVCAR-4 ovarian
Experiment: NCI-60 one-dose screen, 48 h (100 = growth as untreated, 0 = no growth, -100 = all killed)
Details: 10 µM unless noted
Procedure: Growth inhibition of the OVCAR-4 human tumor cell line is measured as a screen for anti-cancer activity. Cells are grown in 96 well plates and exposed to the test compound for 48 hours. Compounds are tested at a single concentration, which is 10^-5 M for most compounds. The reported endpoint is percent growth (GI% or GIPRCNT), where numbers from 0 - 100% represent growth inhibition, and numbers from -100% - 0 represent cell death. For example, a value of 40 represents 60% growth inhibition. […]
The panel holds about 83,000 compounds, 20% with a hit somewhere; the sample as a whole holds those more often. Activity calls are given as the source filed them. The calls were made as follows: active = growth percent below 10; inactive = the rest.
So I've got a bunch of compounds here, and I need their growth values.

Per the record, c1ccc2nc(Cn3c[n+](Cc4ccc5ccccc5n4)c4ccccc43)ccc2c1 has growth of 22.7% (inactive)

Recorded growth (compound O=c1[nH]cc(Nc2cc(Cl)c3nonc3c2[N+](=O)[O-])c(=O)[nH]1 ): 121% (inactive)

GET /value?item= CCOC(=O)/C(=C/CC/C(C)=C/CC/C(C)=C/CCc1ccoc1)CC(=O)N1CCCCC1 &field=growth returns 64.8% (inactive)

Kindly note the recorded growth for Cc1n(Cc2ccc3ccccc3c2)c2ccccc2[n+]1Cc1ccc2ccccc2c1 , which is -7.76% (active)

For COc1cnc2c(c1)C(=O)c1c-2n(CCCNC2=NCCS2)c(=O)c2cc(F)ccc12 the compound record lists growth as 63.1% (inactive)

So, COc1cnc2c(c1)C(=O)c1c-2n(CCCN2CCNCC2)c(=O)c2cc(F)ccc12 ? Its growth was 23% (inactive)

Record COc1cc(Cl)cc(-c2nn(-c3cccc(NC(=O)c4cc(C(F)(F)F)cc(C(F)(F)F)c4)c3)cc2-c2ccncc2)c1 . Reported growth: 72.1% (inactive)

Noted for CCOc1cc(/C=C/C(=O)CC(=O)/C=C/c2ccc(OC(=O)CNCCN(CC)CC)c(OCC)c2)ccc1OC(=O)CNCCN(CC)CC : its growth reads 18.1% (inactive)

growth for Clc1ccc(C2=NN(c3ccc(Cl)cc3)C(c3cccc(Nc4ccnc5cc(Cl)ccc45)c3)C2)cc1 (centres undefined) is 73% (inactive)

---

Test system: OVCAR-3 ovarian
Experiment: NCI-60 one-dose screen, 48 h (100 = growth as untreated, 0 = no growth, -100 = all killed)
Conditions: 10 µM unless noted
About 83,000 compounds went through this panel and 20% of them were active in at least one assay; those are over-represented in the sample as a whole.
Can you tell me growth for the items I'm about to list?
Could you give me the number in %? Just the number is fine.

The observed growth for O=C1NC(=O)/C(=C/c2ccc(Cl)cc2Cl)N1 when tested with OVCAR-3 ovarian stands at 105

Tested on OVCAR-3 ovarian: COc1cc(/C=C/c2cc(/C=C/c3ccc(O)c(OC)c3)n(C(=O)c3ccc(Cl)cc3)n2)ccc1O . Observed growth: 7.65

The value of growth recorded for CCOC(=O)OCC(=O)[C@@]1(O)CC[C@H]2[C@@H]3CCC4=CC(=O)CC[C@]4(C)[C@H]3[C@@H](O)C[C@@]21C when tested on OVCAR-3 ovarian reads 112

OVCAR-3 ovarian data for O=C1/C(=C\c2coc3ccccc3c2=O)c2ccccc2N1c1c(Cl)cccc1Cl ; its growth: 16.8

growth for OVCAR-3 ovarian with input COc1cnc2c(c1)C(=O)c1c-2n(CCCn2ccnc2)c(=O)c2cc(F)ccc12 equals -35.5

Form field, growth with OVCAR-3 ovarian, item CC[n+]1c(/C=C/c2ccc(N3CCCC3)cc2)cccc1/C=C/c1ccc(N2CCCC2)cc1 : -90.1

// compound NC(=N\N=C/Cc1ccccc1)/C(N)=N\N=C\Cc1ccccc1 , assay OVCAR-3 ovarian, growth value: 110

Reported growth (OVCAR-3 ovarian) for entry C[C@]12CCC(=O)C=C1CCC1C2[C@@H](O)C[C@@]2(C)C1CC[C@]2(O)C(=O)COC(=O)CCC(=O)O (some centres undefined) is 123

Simply: Clc1ccc2c(c1)C(Br)c1cc(Cl)cc(Cl)c1-2 (centres undefined) , OVCAR-3 ovarian, growth = 91.7

---

Tested on: ACHN renal
Assay: NCI-60 one-dose screen, 48 h
Conditions: 10 µM unless noted
This is part of a sample that, as a whole, favours compounds with a hit. Of some 83,000 tested, about 20% had one in any assay. Activity calls are given as the source filed them. The calls were made as follows: active = growth percent below 10; inactive = the rest.
Result category, one only: true for active, false for inactive

Status in this test for Cc1ccccc1NC(=O)N/C(N)=N/c1nc2ccccc2s1 ?
false

Tell me the recorded outcome of this test for COc1cc(-c2n[nH]nc2-c2ccccn2)cc(OC)c1OC .
false

Field: outcome | Entry: COc1cc(/C(Cl)=C/C=C/C(=O)c2c(C)[n+]([O-])c3ccc(Cl)cc3[n+]2[O-])cc(OC)c1OC
false

Tell me the assay call for CCCCOP(=O)(OCCCC)C(C(=O)OCC)C(CC(=O)OCC)C(=O)OCC (centres undefined) please.
false

So what was the verdict on CC[C@@H](c1ccc(O)c(O)c1)[C@@H](CC)c1ccc(O)c(O)c1 in this test?
true

What did the test return for COc1cc(/C=C/C(=O)C(C(=O)/C=C/c2ccc(OC(=O)CCNC34CC5CC(CC(C5)C3)C4)c(OC)c2)C(=O)CCNC23CC4CC(CC(C4)C2)C3)ccc1OC(=O)CCNC12CC3CC(CC(C3)C1)C2 (centres undefined) ?
true

What did this assay record as the result for O=C(Oc1cccc2ccccc12)c1ccccc1C(=O)c1ccccc1 ?
false

State the result this test recorded for CCN1CC2=C(Nc3nc(SC)[nH]c(=O)c3C2c2cc(OC)c(OC)c(OC)c2)/C(=C/c2cc(OC)c(OC)c(OC)c2)C1 (centres undefined) .
false

How was O=C(/C=C(\Nc1ccccc1)c1ccccc1)c1cn(-c2ccc([N+](=O)[O-])cc2)nn1 classified in this test?
false

// return assay outcome for Oc1c(Cl)cc(Oc2cc(Cl)c(O)c(CN3CCOCC3)c2)cc1CN1CCOCC1
false

Just curious, what result did Cn1c(=O)c2[nH]c(=S)n(Cc3ccccc3)c2n(C)c1=O get here?
false

Short answer needed: outcome of this test for O=C1CSC(c2ccccc2Cl)N1c1nnc(Cn2nnc3ccccc32)o1 (centres undefined) ?
false

// outcome(item) with item = COc1cccc(/C=C2\Cc3ccccc3C2=O)c1
false

Please indicate how the test categorized COc1ccc(N2CCN(CC(=O)N3CCN(c4nnc(-c5ccccc5)c(-c5ccccc5)n4)CC3)CC2)cc1 .
false

// return assay outcome for CCCCCN1C(=O)CCC1=O
false

Any idea what this test logged for COc1cc(/C=N/OC(=O)Nc2ccccc2)cc(OC)c1OC ?
false

Please indicate how the test categorized NC(=N\N=C/Cc1ccccc1)/C(N)=N\N=C\Cc1ccccc1 .
false

Please let me know the test result on file for COC(=O)[C@H](CCCCNC(=O)OCc1ccccc1)NC(=O)[C@@H](NC(=O)Nc1cc(C(F)(F)F)cc(C(F)(F)F)c1)C(C)C .
true

How did this test come out for COc1cc(/C=C2\CN(S(=O)(=O)c3ccc(C)cc3)C/C(=C\c3cc(CN4CCOCC4)c(O)c(OC)c3)C2=O)cc(CN2CCOCC2)c1O ?
true

---

Tested on: HOP-92 NSCLC
Assay: NCI-60 one-dose screen, 48 h (100 = growth as untreated, 0 = no growth, -100 = all killed)
Conditions: 10 µM unless noted
About 83,000 compounds went through this panel and 20% of them were active in at least one assay; those are over-represented in the sample as a whole. Calls of active or inactive are those of the source. Rule for the calls: active = growth percent below 10; inactive = the rest.
Task for the reader: assign each of the following compounds its reported growth.

Please fill in: growth reported for COc1ccc2cc(C3=CC(=O)CCC3)ccc2c1 = 83.5% (inactive)

Recorded growth (compound N#CC1c2ccccc2C=CN1C(=O)N(c1ccccc1)c1ccccc1 (configuration not stated) ): 45.6% (inactive)

Memo: COc1ccc(-c2nc3sc4c(c3c(=O)[nH]2)CCCCCC4)cc1 , reported growth: 73.2% (inactive)

Looking up O=c1ncc(-c2ccc(C(F)(F)F)cc2)c(NC2CCCCCC2)[nH]1 , I see its growth listed as -2.61% (active)

Noted for COC(=O)[C@H](CCCCNC(=O)OCc1ccccc1)NC(=O)[C@@H](NC(=O)Nc1cc(C(F)(F)F)cc(C(F)(F)F)c1)C(C)C : its growth reads -69.5% [100 µM] (active)

The reported growth of the compound CC(NC(=O)Oc1cccc2ccccc12)c1ccccc1 (configuration not stated) was 103% (inactive)

The compound COCCOCCOCCOCCOc1ccc2c(c1)C(=O)c1nc3ncccc3c(=O)n1-2 showed growth equal to -18.7% (active)

Lab book: growth of COc1cc(/C=C\C(C)=N\Nc2ccccc2)ccc1O noted as 100% (inactive)

Value of measured growth for the entry CCCn1c(N)c(C(=O)CNc2ccc(I)cc2)c(=O)[nH]c1=O : 95.4% (inactive)

Reported growth for Cc1ccc2nc3c(n2c1)C(=O)C(=O)c1ccccc1-3 was -77.2% (active)

Entry C=C(CN1CCc2c([nH]c3ccccc23)C1)c1ccc(C(=O)Nc2ccon2)cc1 ; growth = 31.5% (inactive)

For this compound ( CCCCCCCC[Si](OCC)(OCC)OCC ), measured growth is 88.8% (inactive)

Form: compound = Cc1ccc(-c2csc(N)n2)cc1 ; growth = 70.7% (inactive)

The compound Nc1ccn(C2O[C@H](CO)[C@@H](O)[C@@H]2O)c(=O)n1 (some centres not stated) showed growth equal to 53.8% (inactive)

Measured growth of COc1ccc2c(c1)[n+](=O)c(C(=O)/C=C/c1cc(OC)c(OC)c(OC)c1)c(C)n2[O-] : 63.7% (inactive)

Briefly, growth measured for Cc1ccc(N/N=C(/C(=O)c2ccc(Cl)cc2)c2nc(C)cc(=O)[nH]2)cc1 : 91% (inactive)

Value of growth reported for the compound Cn1c(N2N=C(c3ccc(Cl)cc3)CC2c2ccccc2)nc(-c2ccccc2)c(C#N)c1=O (configuration not stated) is 16% (inactive)

Cc1sc2nc3c4ccccc4c(NCCCN(C)C)nn3c(=O)c2c1C has a reported growth of 29% (inactive)

Briefly, growth measured for COc1ccc2c(=O)c(OC)c(-c3cc(OC)c(OC)c(OC)c3)oc2c1 : 46.5% (inactive)

Record summary for N#Cc1c(NC(=O)c2ccco2)[n+]([O-])c2cc(Cl)c(Cl)cc2[n+]1[O-] : reported growth = 212% (inactive)

Recorded result, COc1ccc(Oc2ccccc2NC(=O)CNC(=O)c2cccc3ccccc23)cc1 , growth: 52.1% [5 µM] (inactive)

The measured growth associated with O=C1Nc2ccc(Cl)cc2/C1=C/c1cccs1 reads 93.7% (inactive)
